# Test system: MS2 coat protein
# protocol_description: apparent KD of MS2 coat protein; designed switch direction (-1 OFF switch, 1 ON switch): -1; higher = weaker reporter binding
# setup_conditions: input ligand: FMN 200 uM
recorded_metric: apparent KD of MS2 coat protein (nM)
Report only the number, with the unit nM understood.

// recorded apparent KD of MS2 coat protein for ACAUGAGGAUCACCCAUGUCAGGUUGGUUUUCUCCGGCUGUUGAGGAUAUAGUCCGGUAUCCGCGCUAGAAGGUGAGGGUUGGC [Aenatbe mod 13] (Eterna round: R96, puzzle: Exclusion NG 3) : 64.5

// recorded apparent KD of MS2 coat protein for CAUAUGUUAGGAUAUGCACAGAUCUCCGAAAGGAGAUCUGUGCAGAAGGAACAUGAGGAUCACCCAUGUUGAUG [Mod of Brourd 17 - Jieux - Exclusion 4] (Eterna round: R97, puzzle: Exclusion 4) : 176

###

What apparent KD of MS2 coat protein was measured for each of the following?
# Tested on: MS2 coat protein
# protocol_description: apparent KD of MS2 coat protein, switch OFF state (with FMN for OFF switches, without FMN for ON switches); designed switch direction (-1 OFF switch, 1 ON switch): -1; higher = weaker reporter binding
# setup_conditions: FMN input: 0 or 200 uM; Eterna round: R93 (includes R88 designs)
Report only the number, with the unit nM understood.

// recorded apparent KD of MS2 coat protein for GGAAAACAUGAGGAUCACCCAUGUAAGGAUAUGCAAAAAAAAAAGGAUAUAGAAGGAAGCAGAAGGUACAAAGG [salish99-ex1-28] : 55.1

// recorded apparent KD of MS2 coat protein for AAGACUACAGGAUAUACAUGAGGAUCACCCAUGUAACUGACAAGUAGAGUACGGAGAAGUAGAAGGGUAGUCAA [Ruby 34] : 17.6

// recorded apparent KD of MS2 coat protein for AACGAGUCAGGAUAUACAAAAAGUAAAUAAGUAAAACCAAAGUAGAAGGGACAUGAGGAUCACCCAUGUAAAUA [JR_Exc004_Sub019] : 24.4

// recorded apparent KD of MS2 coat protein for AACAGUACAGGAUAUACAUGAGGAUCACCCAUGUGAGAAUUAAGUGGAGAACCACAAAGUAGAAGGGUACUGGA [Mat - Exclusion 3 - JL mod - D2] : 250

// recorded apparent KD of MS2 coat protein for AAGAAGUGAGGAUAUCGAAGACUGUCGAAAAGACAGUCGAACGAGAAGGCACAUGAGGAUCACCCAUGUGAGAA [Marsurpial 65% 1] : 55.6

// recorded apparent KD of MS2 coat protein for AAAUAGCAAGGAUAUACAUGAGGAUCACCCAUGUGAAAAUGAUACGUAAUAGAAUAGAGUAGAAGGUGCAAAUA [Ex 3 Tesla 7] : 28.7

// recorded apparent KD of MS2 coat protein for AACGAACAUGAGGAUCACCCAUGUCAGGAUAUGCGAAGAACGAUCGAACAAACGAUAAGCAGAAGGGACAGAGA [Amethyst 98] : 50

// recorded apparent KD of MS2 coat protein for AAAAUGAAAGGAUAUACAUGAGGAUCACCCAUGUUCCAGAACAGGAGUACAAGCGAGUGUAGAAGGUUCAGCAA [Ercesois] : 42.7

// recorded apparent KD of MS2 coat protein for CUCAAGUUAGGAUAUAGAAGAAAAGAAGAGAAAGAAAAGAACUAGAAGGAACAUGAGGAUCACCCAUGUAAGAA [EteRNA is fun!] : 20.5

// recorded apparent KD of MS2 coat protein for AGAAUUGUAGGAUAUACAUGAGGAUCACCCAUGUGGGAGGUGGAGCAAACAAGACGAGGUAGAAGGACAACGAC [JR_Exc003-Sub904] : 125

// recorded apparent KD of MS2 coat protein for AACAGCACAGGAUAUACAUGAGGAUCACCCAUGUGAGAAUUAAGUGGCGUACCACAAAGUAGAAGGGUGCUGGA [Mat - Exclusion 3 - JL mod - D39] : 203

// recorded apparent KD of MS2 coat protein for AGAAAGUCAGGAUAUGCAGAAAAAAAAACGAAAAAAAAACUGCAGAAGGGACAUGAGGAUCACCCAUGUUAAGA [Mat - Exclusion 4 - Mayanna - D130] : 49

// recorded apparent KD of MS2 coat protein for AAGAAAGGAGGAUAUACAUGAGGAUCACCCAUGUAAAAGAAAGAAGGGAAAGAGAAAAGUAGAAGGCCUAAGAA [Wahibre Psamtik I] : 31

// recorded apparent KD of MS2 coat protein for AAAAUACAUGAGGAUCACCCAUGUGAGGAUAUGCUAUGGAAAAUAAAAAUAAAACAUAGCAGAAGGCACAAAAA [Denovo 13] : 56.7

// recorded apparent KD of MS2 coat protein for AAAACGGUAGGAUAUACGAUUGGGAACUAGACCGAGAAACCACAUGAGGAUCACCCAUGUAGAAGGGCCAAAAA [Ex2 Malc#13] : 36.2

// recorded apparent KD of MS2 coat protein for UACGGACAUGAGGAUCACCCAUGUGAGGAUAUCGAUACCGAUAGCAUAAUAUAAUCGGCGAGAAGGCACAGCGU [JR_Exc001_Sub505] : 54.7

// recorded apparent KD of MS2 coat protein for AAAUUAGCAGGAUAUACUAGGGUCCACCGAACUCUGAAAAGACAUGAGGAUCACCCAUGUAGAAGGGCUUCGAA [Atileso] : 97.6

// recorded apparent KD of MS2 coat protein for AACAGUACAGGAUAUACAUGAGGAUCACCCAUGUAAAAUAAAUAAAAAUAAAAAGGGAGUAGAAGGGUACUGGA [Moding Maslow revisited (73) 19] : 50.3

// recorded apparent KD of MS2 coat protein for AAAAAGUCAGGAUAUGCGAAGGCGUCUGAUAGACGAGGCUAGCAGAAGGGACAUGAGGAUCACCCAUGUGGAAG [Mat - Exclusion 4 - Eli mod - D89] : 121

// recorded apparent KD of MS2 coat protein for AGGAUGUCAGGAUAUGUGUAAAGAAUAAAACAAAUAACAACACAGAAGGGACAUGAGGAUCACCCAUGUUAAGA [May 44] : 55.7

// recorded apparent KD of MS2 coat protein for AAGAAGGCAGGAUAUACAUGAGGAUCACCCAUGUAAAAGAAAGAAAAGGGAAAGAAAAGUAGAAGGGCCAAGAA [Kamose] : 72.1

// recorded apparent KD of MS2 coat protein for AAGAAUCGAGGAUAUACAUGAGGAUCACCCAUGUAAAAGAAAGAAAGGGAAAAGAAAAGUAGAAGGCGAAAGAA [Usermaatre-setepenre Shoshenq III] : 23.6

// recorded apparent KD of MS2 coat protein for ACAUGUACAGGAUAUACAUGGAAAAAAAAAAAAAAAAAACUACAUGAGGAUCACCCAUGUAGAAGGGUACAUGA [Ex2 Design 193: Random 12B] : 25.7

// recorded apparent KD of MS2 coat protein for AAAUGAUGAGGAUAUACAUGAGGAUCACCCAUGUGUAAAAAUAAAUACACAAAAGAAAGUAGAAGGCAUCAAAA [Ex 3 May 12] : 99

// recorded apparent KD of MS2 coat protein for CUAGUACAUGAGGAUCACCCAUGUCAGGAUAUUGGAUAUGCCAUGGAAAACAUGUUUACAAGAAGGGACUAUAG [EX1 Malc#22] : 36.4

// recorded apparent KD of MS2 coat protein for AAGAAGUCAGGAUAUACAUGAGGAUCACCCAUGUAAAAGAAAGAAAGGGAAAAGAAAAGUAGAAGGGACAAGAA [Usermaatre-akhenamun Ramesses VIII] : 25.5
